Would you kindly list Efficacy for each of these molecules?
Test system: Septoria tritici
assay explanation: In vivo preventive test on Septoria tritici (wheat)
test parameters: preventive spray, 500 ppm of active ingredient, grading 24 days after contamination
Numbers only, in %.

Lab request: please report Efficacy under test system Septoria tritici for CC[Si](C)(CN(C(=O)c1cccnc1Cl)C1CC1)c1ccccc1Cl (stereo not shown)
80

What is its Efficacy for Septoria tritici? Entry: "C[Si](C)(CN(C(=O)c1cccnc1C(F)F)C1CC1)c1ccc(Cl)cc1Cl"
100

Could you share what Efficacy was measured for "Cc1ccccc1[Si](C)(C)CN(C(=O)c1cccnc1Cl)C1CC1" , tested on Septoria tritici?
97

State its Efficacy on Septoria tritici: "C[Si](C)(CN(C(=O)c1cccnc1C(F)(F)F)C1CC1)c1ccccc1C(F)(F)F"
64

Request: Efficacy, test system Septoria tritici, entry "C[Si](C)(CN(C(=O)c1nccnc1C(F)(F)F)C1CC1)c1ccccc1"
86

Look at each molecule and report its Efficacy.
1. C[Si](C)(CNC(=O)c1nccnc1C(F)(F)F)c1ccccc1
2. C[Si](C)(CNC(=O)c1nccnc1C(F)(F)F)c1ccccc1Cl
3. C[Si](C)(CN(C(=O)c1cccnc1Cl)C1CC1)c1ccccc1F
4. CC[Si](C)(CN(C(=O)c1nccnc1C(F)(F)F)C1CC1)c1ccccc1Cl (stereo not shown)
5. C[Si](C)(CNC(=O)c1cccnc1C(F)F)c1ccccc1Cl
6. C[Si](C)(CNC(=O)c1cccnc1C(F)F)c1cc(Cl)cc(Cl)c1
7. C[Si](C)(CN(C(=O)c1cccnc1C(F)F)C1CC1)c1ccccc1C(F)(F)F
8. CCc1ccccc1[Si](C)(C)CN(C(=O)c1cccnc1C(F)(F)F)C1CC1

[93, 90, 79, 86, 96, 96, 100, 93]

* * *

assay explanation: log P by HPLC on reversed-phase column (C 18), EEC Directive 79/831 Annex V.A8
Assay type: physicochemical
test parameters: 40° C., 0.1% aqueous formic acid and acetonitrile, linear gradient 10% to 90% acetonitrile
I'd appreciate it if you could supply logP values for the items below.
Answers are plain numbers.

Which logP value belongs to "CCc1ccccc1[Si](C)(C)CN(C(=O)c1cccnc1C(F)(F)F)C1CC1" ?
4.51

What logP value was documented for this compound, "C[Si](C)(CN(C(=O)c1cccnc1C(F)F)C1CC1)c1ccccc1Cl" ?
3.83

// query logP value for entry "C[Si](C)(CN(C(=O)c1cccnc1C(F)(F)F)C1CC1)c1cccc(Cl)c1"
4.34

So what's the measured logP for this one? "C[Si](C)(CN(C(=O)c1cccnc1C(F)F)C1CC1)c1ccc(Cl)cc1Cl"
4.51

Report logP for every entry below.
1. C[Si](C)(CNC(=S)c1cccnc1C(F)F)c1ccccc1Cl
2. C[Si](C)(Cc1ccccc1Cl)CN(C(=O)c1ccccc1I)C1CC1
3. C[Si](C)(CN(C(=O)c1cccnc1Cl)C1CC1)c1ccc(Cl)cc1Cl
4. C[Si](C)(CN(C(=O)c1cccnc1Cl)C1CC1)c1ccccc1C(F)(F)F
5. CN(C[Si](C)(C)c1cc(Cl)cc(Cl)c1)C(=O)c1cccnc1C(F)F

3.83
5.45
4.64
4.04
3.92

For every item in the list below, what is its measured logP?
1. C[Si](C)(CNC(=O)c1cccnc1Cl)c1ccccc1
2. C[Si](C)(Cc1ccc(Cl)cc1Cl)CN(C(=O)c1cccnc1Cl)C1CC1
3. C[Si](C)(CN(C(=O)c1cccnc1Cl)C1CC1)c1cc(F)ccc1Cl
4. C[Si](C)(CN(C(=O)c1cccnc1Cl)C1CC1)c1cccs1

[2.61, 4.90, 3.99, 3.39]

// each listed compound needs a value for logP
1. C[Si](C)(CN(C(=O)c1cccnc1C(F)(F)F)C1CC1)c1cccs1
2. C[Si](C)(Cc1ccccc1)CN(C(=O)c1cccnc1C(F)(F)F)C1CC1
3. C[Si](C)(Cc1ccc(Cl)cc1Cl)CN(C(=O)c1nccnc1C(F)(F)F)C1CC1
4. C[Si](C)(CN(C(=O)c1cccnc1C(F)F)C1CC1)c1cccc2ccccc12
5. C[Si](C)(CN(C(=O)c1ccccc1I)C1CC1)c1cccc2ccccc12

3.80
4.19
5.45
4.04
5.31

Cited source: patent US9617286B2
